target: DNA-PK phosphorylation at serine 2056 (Homo sapiens (Human), UniProt P78527); assay: DNA-PK phosphorylation at serine 2056 (cellular), bleomycin-treated HCT116 cells, ELISA; format: cell-based; settings: cellular DNA-PK phosphorylation at serine 2056, HCT116; read-out: IC50 pDNA-PK
pIC50: −log10 of the molar value.

molecule	pIC50
[2H]C1([2H])OC([2H])([2H])C([2H])([2H])N(c2ccc3c(-c4cc(C(O)c5nccnc5C)ccc4F)ncnc3c2)C1([2H])[2H] (stereo not shown) [Example 259]	> 6.30
Cc1nccnc1C(O)c1cc(-c2ncnc3cc(N4CCOCC4)cnc23)c(F)cc1Cl (stereo not shown)	5.30 to 6.30
Cn1c(C(O)c2ccc(F)c(-c3ncnc4cc(N5CCOCC5)ccc34)c2)nccc1=O (stereo not shown)	5.30 to 6.30
COc1cncnc1C(O)c1cc(-c2ncnc3cc(N4CCOCC4)ccc23)ccc1Cl (stereo not shown) [Example 408]	5.30 to 6.30
COc1nccnc1C(O)c1ccc(F)c(-c2ncnc3cc(N4CCOCC4)cc(F)c23)c1 (single isomer, unassigned) [Example 252]	> 6.30
Cc1nccnc1C(O)c1cc(-c2ncnc3cc(N4CCOCC4)ccc23)ccc1Cl (stereo not shown) [Example 427]	5.30 to 6.30
Cn1cnc2c(C(O)c3cc(-c4ncnc5cc(N6CCOCC6)ccc45)c(F)cc3F)ncnc21 (stereo not shown) [Example 346]	4.52 to 5.00

###

biological target: Kv11.1 (hERG) (Homo sapiens (Human)); test: Kv11.1 (hERG) ion channel activity (patch clamp assay), HEK293 cells transfected with hERG gene; conditions: read-out: Ki [Kv1.11 hERG]; hERG patch clamp assay (cells without asterisk)
pKi: −log10 of the molar value.
value type: pKi

> print(dat)
                                   compound                           system.name  recorded.value
1  NC(=O)C(c1ccc(F)c(-c2ncnc3cc(N4CCOCC4)ccc23)c1)c1nnc(Cl)c2sccc12 (centres unmarked) [Example 291]  Kv11.1 (hERG) (Homo sapiens (Human))          > 5.00
2  OC(c1cc(-c2ncnc3cc(N4CCOCC4)ccc23)c(F)cc1F)c1nnc2ccccn12 (centres unmarked) [Example 379]  Kv11.1 (hERG) (Homo sapiens (Human))          < 4.60
3  NC(=O)C(c1ccc(F)c(-c2ncnc3cc(N4CCOCC4)ccc23)c1)c1ncnn2cccc12 (centres unmarked) [Example 299]  Kv11.1 (hERG) (Homo sapiens (Human))          > 5.00
4  COc1nccnc1C(O)c1cc(-c2ncnc3cc(N4CCOCC4)ccc23)ccc1Cl (centres unmarked) [Example 410]  Kv11.1 (hERG) (Homo sapiens (Human))          > 5.00
5  Cn1c(C(O)c2cc(-c3ncnc4cc(N5CCOCC5)ccc34)c(F)cc2Cl)cccc1=O (centres unmarked) [Example 383]  Kv11.1 (hERG) (Homo sapiens (Human))          < 4.60
6  Cn1nc(C(C(N)=O)c2cc(-c3ncnc4cc(N5CCOCC5)ccc34)c(F)cc2Cl)ccc1=O (centres unmarked) [Example 311]  Kv11.1 (hERG) (Homo sapiens (Human))          < 4.60
7  NC(=O)C(c1cc(-c2ncnc3cc(N4CCOCC4)ccc23)c(F)cc1Cl)c1ncnn2cccc12 (centres unmarked) [Example 309]  Kv11.1 (hERG) (Homo sapiens (Human))          > 5.00
8  COc1nccnc1C(O)c1cc(-c2ncnc3cc(N4CCOCC4)cnc23)c(F)cc1Cl (centres unmarked) [Example 231]  Kv11.1 (hERG) (Homo sapiens (Human))          < 4.60

###

target: Kv11.1 (hERG) (Homo sapiens (Human)); test: Kv11.1 (hERG) ion channel activity (patch clamp assay), HEK293 cells transfected with hERG gene; settings: read-out: Ki [Kv1.11 hERG]; Table 5
# Ki values compiled below
value type: Ki

> print(dat)
                                   compound  value.type  recorded.value
1  OC(c1cccc(-c2ncnc3cc(N4CCOCC4)ccc23)c1)(c1nccs1)C(F)(F)F (centres unmarked) [Example 159]          Ki         < 10 µM
2  OCc1csc([C@H](O)c2cc(-c3ncnc4cc(N5CCOCC5)ccc34)c(F)cc2Cl)n1 [Example 186]          Ki         < 10 µM
3  OC(c1cccc(-c2ncnc3cc(N4CCOCC4)ccc23)c1)(c1nccs1)C(F)(F)F (centres unmarked) [Example 173]          Ki         < 10 µM
4  Cc1csc(C(O)c2cc(-c3ncnc4cc(N5CCOCC5)ccc34)c(F)cc2Cl)n1 (centres unmarked) [Example 181]          Ki         < 10 µM
5  Cc1nc(C(O)c2cc(-c3ncnc4cc(N5CCOCC5)ccc34)cnc2F)sc1C (centres unmarked) [Example 194]          Ki         > 25 µM
6  Cn1cc(C(O)c2ccc(F)c(-c3ncnc4cc(N5CCOCC5)ccc34)c2)cn1 (centres unmarked) [Example 191]          Ki         > 25 µM
7  OC(c1cc(F)c(F)c(-c2ncnc3cc(N4CCOCC4)ccc23)c1)c1nccs1 (centres unmarked) [Example 179]          Ki         < 10 µM
8  Fc1ccc(C(OC(F)F)c2nccs2)cc1-c1ncnc2cc(N3CCOCC3)ccc12 (centres unmarked) [Example 199]          Ki         < 10 µM

###

# pIC50 values compiled below
molecular target: DNA-PK phosphorylation at serine 2056 (Homo sapiens (Human)); test: DNA-PK phosphorylation at serine 2056 (cellular), bleomycin-treated HCT116 cells, ELISA; format: cell-based; conditions: Table 5; HCT116 cells; read-out: IC50 pDNA-PK
pIC50: −log10 of the molar value.
value type: pIC50

> print(dat)
                                   compound  recorded.value
1  OC(c1cccc(-c2ncnc3cc(N4CCOCC4)ccc23)c1)(c1nccs1)C(F)(F)F (stereo not drawn) [Example 172]    4.52 to 5.00
2  Cc1csc(C(O)c2cc(-c3ncnc4cc(N5CCOCC5)ccc34)c(F)cc2Cl)n1 (stereo not drawn)    5.30 to 6.30
3  OC(c1cccc(-c2ncnc3cc(N4CCOCC4)ccc23)c1)c1nccs1 (stereo not drawn) [Example 150]    5.00 to 5.30
4  OC(c1ccc(F)c(-c2ncnc3cc(C4=CCOCC4)ccc23)c1)c1nccs1 (stereo not drawn)    4.52 to 5.00
5  OC(c1ccc(F)c(-c2ncnc3cc(N4CCOCC4)ncc23)c1)c1nccs1 (stereo not drawn)    4.52 to 5.00
6  CC(O)(c1cncc(-c2ncnc3cc(N4CCOCC4)ccc23)c1)c1nccs1 (stereo not drawn)    4.52 to 5.00

###

target: Kv11.1 (hERG) (Homo sapiens (Human), UniProt Q12809); test: Kv11.1 (hERG) ion channel activity (patch clamp assay), HEK293 cells transfected with hERG gene; details: human, HEK293 cells stably transfected with the hERG gene, Ki [Kv1.11 hERG], Table 5
Sequence (Q12809 whole entry): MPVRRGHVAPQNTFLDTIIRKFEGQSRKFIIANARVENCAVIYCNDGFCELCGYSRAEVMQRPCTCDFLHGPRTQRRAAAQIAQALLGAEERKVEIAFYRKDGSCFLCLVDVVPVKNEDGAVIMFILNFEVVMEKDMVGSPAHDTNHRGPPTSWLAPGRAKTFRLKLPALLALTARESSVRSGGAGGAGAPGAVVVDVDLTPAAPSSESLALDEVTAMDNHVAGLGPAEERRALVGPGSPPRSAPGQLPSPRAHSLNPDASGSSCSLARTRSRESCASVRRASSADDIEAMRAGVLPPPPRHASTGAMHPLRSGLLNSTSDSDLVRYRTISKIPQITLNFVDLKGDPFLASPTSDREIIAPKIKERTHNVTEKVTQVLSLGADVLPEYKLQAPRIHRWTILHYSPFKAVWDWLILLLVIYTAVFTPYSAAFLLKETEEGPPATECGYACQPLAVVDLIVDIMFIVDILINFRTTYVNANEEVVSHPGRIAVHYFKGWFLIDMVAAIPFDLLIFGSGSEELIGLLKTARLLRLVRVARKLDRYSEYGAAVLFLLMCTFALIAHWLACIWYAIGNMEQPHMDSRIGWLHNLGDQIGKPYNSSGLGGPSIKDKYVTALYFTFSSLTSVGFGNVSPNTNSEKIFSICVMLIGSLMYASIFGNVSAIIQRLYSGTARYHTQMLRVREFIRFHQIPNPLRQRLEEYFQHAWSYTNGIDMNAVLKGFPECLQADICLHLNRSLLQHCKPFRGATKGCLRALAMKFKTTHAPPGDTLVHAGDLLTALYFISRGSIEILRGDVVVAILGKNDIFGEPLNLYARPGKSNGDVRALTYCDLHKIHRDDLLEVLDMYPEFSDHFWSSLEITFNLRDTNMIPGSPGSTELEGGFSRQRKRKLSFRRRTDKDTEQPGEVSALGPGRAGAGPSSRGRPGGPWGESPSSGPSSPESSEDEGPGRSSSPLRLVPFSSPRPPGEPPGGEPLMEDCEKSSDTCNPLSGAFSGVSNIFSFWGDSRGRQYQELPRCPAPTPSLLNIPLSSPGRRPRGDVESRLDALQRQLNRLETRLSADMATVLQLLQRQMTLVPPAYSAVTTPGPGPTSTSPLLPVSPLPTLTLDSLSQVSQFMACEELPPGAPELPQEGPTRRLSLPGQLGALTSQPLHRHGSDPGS
value type: Ki

> print(dat)
                                   compound  value.type  recorded.value
1  OC(c1ccc(F)c(-c2ncnc3cc(N4CCOCC4)sc23)c1)c1nccs1 (racemic)          Ki     15 to 25 µM

###

target: DNA-PK phosphorylation at serine 2056 (Homo sapiens (Human), UniProt P78527); test: DNA-PK phosphorylation at serine 2056 (cellular), bleomycin-treated HCT116 cells, ELISA; assay type: cell-based; conditions: cellular DNA-PK phosphorylation at serine 2056, HCT116; read-out: IC50 pDNA-PK
value type: IC50

> print(dat)
                                   compound  recorded.value
1  Cn1c(C(O)c2cc(-c3ncnc4cc(N5CCOCC5)ccc34)c(F)cc2Cl)nccc1=O (stereo not shown)      5 to 10 µM
2  OC(c1cc(-c2ncnc3cc(N4CCOCC4)ccc23)ccc1Cl)c1nccn2ccnc12 (stereo not shown)      5 to 10 µM
3  NC(=O)C(c1ccc(F)c(-c2ncnc3cc(N4CCOCC4)ccc23)c1)c1nncc2ccsc12 (stereo not shown)     10 to 30 µM
4  Cn1ncc2c(C(O)c3ccc(F)c(-c4ncnc5cc(N6CCOCC6)ccc45)c3)ncnc21 (stereo not shown)        < 0.5 µM

###

# Ki values compiled below
molecular target: Kv11.1 (hERG) (Homo sapiens (Human)); test: Kv11.1 (hERG) ion channel activity (patch clamp assay), HEK293 cells transfected with hERG gene; details: Ki [Kv1.11 hERG], hERG patch clamp assay (cells without asterisk)
value type: Ki

> print(dat)
                                    compound                           system.name  recorded.value
 1  COc1ccc(C(C(N)=O)c2cc(-c3ncnc4cc(N5CCOCC5)ccc34)ccc2Cl)nn1 (stereo not shown)  Kv11.1 (hERG) (Homo sapiens (Human))     15 to 25 µM
 2  Cc1nccnc1C(O)c1cc(-c2ncnc3cc(N4CCOCC4)ccc23)ccc1F (stereo not shown)  Kv11.1 (hERG) (Homo sapiens (Human))     15 to 25 µM
 3  COc1cncnc1C(O)c1cc(-c2ncnc3cc(N4CCOCC4)ccc23)ccc1Cl (stereo not shown) [Example 408]  Kv11.1 (hERG) (Homo sapiens (Human))     10 to 15 µM
 4  OC(c1cc(-c2ncnc3cc(N4CCOCC4)ccc23)ccc1Cl)c1ncnc2ccoc12 (stereo not shown)  Kv11.1 (hERG) (Homo sapiens (Human))     10 to 15 µM
 5  OC(c1ccc(F)c(-c2ncnc3cc(N4CCOCC4)ccc23)c1)c1ncnc2sccc12 (stereo not shown)  Kv11.1 (hERG) (Homo sapiens (Human))     10 to 15 µM
 6  O=c1[nH]nc(C(O)c2ccc(F)c(-c3ncnc4cc(N5CCOCC5)ccc34)c2)c2sccc12 (stereo not shown)  Kv11.1 (hERG) (Homo sapiens (Human))     15 to 25 µM
 7  NC(=O)C(c1ccc(F)c(-c2ncnc3cc(N4CCOCC4)ccc23)c1)c1nncc2sccc12 (stereo not shown)  Kv11.1 (hERG) (Homo sapiens (Human))     15 to 25 µM
 8  COc1nccnc1[C@@H](O)c1cc(-c2ncnc3cc(N4CCOCC4)ccc23)c(F)cc1Cl  Kv11.1 (hERG) (Homo sapiens (Human))     10 to 15 µM
 9  OC(c1cc(-c2ncnc3cc(N4CCOCC4)ccc23)c(F)cc1F)c1ncnc2c1CCNC2 (stereo not shown)  Kv11.1 (hERG) (Homo sapiens (Human))     15 to 25 µM
10  NC(=O)C(c1ccc(F)c(-c2ncnc3cc(N4CCOCC4)ccc23)c1)c1cncc(F)c1Cl (stereo not shown)  Kv11.1 (hERG) (Homo sapiens (Human))     10 to 15 µM
11  OC(c1cc(-c2ncnc3cc(N4CCOCC4)ccc23)ccc1Cl)c1ncncc1F (stereo not shown) [Example 412]  Kv11.1 (hERG) (Homo sapiens (Human))     15 to 25 µM
12  OC(c1ccc(F)c(-c2ncnc3cc(N4CCOCC4)ccc23)c1)c1nncc2ccsc12 (stereo not shown)  Kv11.1 (hERG) (Homo sapiens (Human))     15 to 25 µM
13  OC(c1cc(-c2ncnc3cc(N4CCOCC4)ccc23)c(F)cc1Cl)c1ncnc2ccoc12 (stereo not shown) [Example 441]  Kv11.1 (hERG) (Homo sapiens (Human))     10 to 15 µM
14  Cn1c(C(O)c2cc(-c3ncnc4cc(N5CCOCC5)ccc34)c(F)cc2Cl)cccc1=O (stereo not shown)  Kv11.1 (hERG) (Homo sapiens (Human))     15 to 25 µM
15  Cn1cnc2c(C(O)c3cc(-c4ncnc5cc(N6CCOCC6)ccc45)ccc3Cl)ncnc21 (stereo not shown)  Kv11.1 (hERG) (Homo sapiens (Human))     10 to 15 µM
16  NC(=O)C(c1ccc(F)c(-c2ncnc3cc(N4CCOCC4)ccc23)c1)c1ncccc1Cl (stereo not shown)  Kv11.1 (hERG) (Homo sapiens (Human))     15 to 25 µM
